# target: human GR (Homo sapiens, UniProt P04150)
# run.description: glucocorticoid receptor (GR) binding test, cytosol of Sf9 cells, [3H]-dexamethasone
# assay.conditions: human GR from Sf9 cytosol
Mark Y only when IC50 stays strictly below 2 nM. Values equal to the cut-off are N.

Worked cases, answers included:
compound	answer.label
Cc1noc(=O)c2ccc(NC(=O)C(O)(CC(C)(C)c3cccc4c3OCO4)C(F)(F)F)cc12 (racemic) [Example 1]	Y
COc1c(F)cccc1C1(CC(O)(C(=O)Nc2ccc3c(=O)onc(C)c3c2)C(F)(F)F)CCC1 (single isomer, unassigned) [Example 32]	N
COc1c(F)cccc1C1(CC(O)(C(=O)Nc2ccc3c(=O)onc(C)c3c2)C(F)(F)F)CCC1 (racemic) [Example 31]	N
Cc1noc(=O)c2ccc(NC(=O)C(O)(CC(C)(C)c3cccc4c3OCO4)C(F)(F)F)cc12 (single isomer, unassigned; (+)) [Example 2]	Y
Cc1noc(=O)c2ccc(NC(=O)C(O)(CC3(c4cccc5c4OCC5)CC3)C(F)(F)F)cc12 (racemic) [Example 12]	Y

State whether 2 nM exceeds IC50 recorded for Cc1noc(=O)c2ccc(NC(=O)C(O)(CC3(c4cc(F)ccc4O)CCC3)C(F)(F)F)cc12 (single isomer, unassigned) [Example 29] .
Y

State whether 2 nM exceeds IC50 recorded for Cc1noc(=O)c2ccc(NC(=O)C(O)(CC3(c4cccc5c4OCC5)CC3)C(F)(F)F)cc12 (single isomer, unassigned) [Example 13] .
Y

----------
Quick list: pIC50 per entry.
# Test system: secretion of cytokine IL-8 in human monocyte cell line THP-1
# run.description: inhibition of LPS-triggered IL-8 secretion in THP-1 cells (ELISA)
# Format: cell-based
# assay.conditions: Homo sapiens; THP-1, LPS-triggered
// returns pIC50 (minus log10 of molar concentration), number only

Recorded results for 2 compounds are shown here.
compound	pIC50
Cc1noc(=O)c2ccc(NC(=O)C(O)(CC(C)(C)c3cccc4c3OCO4)C(F)(F)F)cc12 (racemic) [Example 1]	7.12
Cc1noc(=O)c2ccc(NC(=O)C(O)(CC3(c4cccc5c4OCO5)CC3)C(F)(F)F)cc12 (racemic)	7.41

Write down pIC50 measured for item Cc1noc(=O)c2ccc(NC(=O)C(O)(CC3(c4cc(F)ccc4O)CCC3)C(F)(F)F)cc12 (single isomer, unassigned) [Example 29]
7.51

Write down pIC50 measured for item C[C@]12C=CC(=O)C=C1CC[C@@H]1[C@@H]2[C@@H](O)C[C@@]2(C)[C@H]1CC[C@]2(O)C(=O)CO [Prednisolone, reference compound]
7.74

Write down pIC50 measured for item Cc1noc(=O)c2ccc(NC(=O)C(O)(CC3(c4cc(F)ccc4O)CCC3)C(F)(F)F)cc12 (racemic) [Example 28]
6.07

Write down pIC50 measured for item Cc1noc(=O)c2ccc(NC(=O)C(O)(CC3(c4cccc5c4OCC5)CC3)C(F)(F)F)cc12 (racemic) [Example 12]
7.38

Write down pIC50 measured for item Cc1noc(=O)c2ccc(NC(=O)C(O)(CC3(c4cccc5c4OCC5)CC3)C(F)(F)F)cc12 (single isomer, unassigned) [Example 13]
7.43

Write down pIC50 measured for item Cc1noc(=O)c2ccc(NC(=O)C(O)(CC(C)(C)c3cccc4c3OCO4)C(F)(F)F)cc12 (single isomer, unassigned; (+)) [Example 2]
7.54

----------
Quick list: IC50 per entry.
# target: GR (IL-6 promoter) (Homo sapiens)
# Sequence (P04150 1-777): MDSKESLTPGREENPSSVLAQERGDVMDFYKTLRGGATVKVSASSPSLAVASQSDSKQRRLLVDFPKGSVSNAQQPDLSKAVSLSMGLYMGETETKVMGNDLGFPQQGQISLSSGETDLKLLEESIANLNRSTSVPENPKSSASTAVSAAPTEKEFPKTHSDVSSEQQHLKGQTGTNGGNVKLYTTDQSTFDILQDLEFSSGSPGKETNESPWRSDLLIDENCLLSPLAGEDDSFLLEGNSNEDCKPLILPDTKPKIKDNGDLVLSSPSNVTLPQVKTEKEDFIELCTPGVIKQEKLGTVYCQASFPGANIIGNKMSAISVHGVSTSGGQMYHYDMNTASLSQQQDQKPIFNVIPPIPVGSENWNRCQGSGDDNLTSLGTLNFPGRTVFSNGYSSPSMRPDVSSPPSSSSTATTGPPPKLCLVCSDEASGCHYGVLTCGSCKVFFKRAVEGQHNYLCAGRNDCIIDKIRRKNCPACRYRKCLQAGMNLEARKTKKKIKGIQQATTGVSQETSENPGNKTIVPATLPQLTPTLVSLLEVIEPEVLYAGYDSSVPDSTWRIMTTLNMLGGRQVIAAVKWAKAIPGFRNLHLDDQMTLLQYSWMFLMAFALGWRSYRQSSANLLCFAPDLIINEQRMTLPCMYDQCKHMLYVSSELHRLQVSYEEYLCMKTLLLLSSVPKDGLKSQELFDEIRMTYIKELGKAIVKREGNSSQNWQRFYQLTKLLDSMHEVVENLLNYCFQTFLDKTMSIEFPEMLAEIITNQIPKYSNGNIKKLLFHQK
# run.description: reporter gene test in HeLa cells, transrepression, IL-6 promoter-luciferase
Report field: quantity (unit follows the number).

Write down IC50 measured for item COc1c(F)cccc1C1(CC(O)(C(=O)Nc2ccc3c(=O)onc(C)c3c2)C(F)(F)F)CCC1 (single isomer, unassigned) [Example 32]
2.2 nM

Write down IC50 measured for item Cc1noc(=O)c2ccc(NC(=O)C(O)(CC3(c4cc(F)ccc4O)CCC3)C(F)(F)F)cc12 (single isomer, unassigned)
1.5 nM

Write down IC50 measured for item CCc1noc(=O)c2ccc(NC(=O)C(O)(CC(C)(C)c3cccc4ccoc34)C(F)(F)F)cc12 (single isomer, unassigned; (+))
2.8 nM

Write down IC50 measured for item Cc1noc(=O)c2ccc(NC(=O)C(O)(CC(C)(C)c3cc(F)cc4c3OCO4)C(F)(F)F)cc12 (racemic) [Example 18]
5.7 nM

Write down IC50 measured for item Cc1noc(=O)c2ccc(NC(=O)C(O)(CC3(c4cccc(F)c4O)CCC3)C(F)(F)F)cc12 (single isomer, unassigned)
2.2 nM

Write down IC50 measured for item Cc1noc(=O)c2ccc(NC(=O)C(O)(CC3(c4cccc5c4OCO5)CC3)C(F)(F)F)cc12 (racemic)
5.9 nM

Source listed as patent US7112584B2.
